B1: library; a variant is named by its letters at N, in order (parent)
chain: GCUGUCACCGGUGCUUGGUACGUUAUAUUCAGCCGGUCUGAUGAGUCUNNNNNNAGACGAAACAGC

Variants of: B1
Assay: normalized RNA/DNA level with ligand (relative to sTRSVctl = 100) (log10 (% of sTRSVctl)); HEK293T overexpressing SLC46A1; ligand concentration (+) RNA-Seq: 6 mM; higher = less ribozyme self-cleavage, higher mRNA level
Conditions: with (6R,S)-folinic acid; ligand present: yes
List of normalized RNA/DNA level with ligand (log10) values.
Answer using only a numeral; do not append any unit.

Below, each entry is followed by its recorded normalized RNA/DNA level with ligand (log10) result.
GCUGUCACCGGUGCUUGGUACGUUAUAUUCAGCCGGUCUGAUGAGUCUAGGCGUAGACGAAACAGC [AGGCGU] :: 2.05
GCUGUCACCGGUGCUUGGUACGUUAUAUUCAGCCGGUCUGAUGAGUCUUUGGUCAGACGAAACAGC [UUGGUC] :: 2.04
GCUGUCACCGGUGCUUGGUACGUUAUAUUCAGCCGGUCUGAUGAGUCUUGUAUCAGACGAAACAGC [UGUAUC] :: 1.99
GCUGUCACCGGUGCUUGGUACGUUAUAUUCAGCCGGUCUGAUGAGUCUAAAGCAAGACGAAACAGC [AAAGCA] :: 1.98
GCUGUCACCGGUGCUUGGUACGUUAUAUUCAGCCGGUCUGAUGAGUCUGUUCUAAGACGAAACAGC [GUUCUA] :: 2.03

Kindly note the recorded normalized RNA/DNA level with ligand (log10) for GCUGUCACCGGUGCUUGGUACGUUAUAUUCAGCCGGUCUGAUGAGUCUGCGCUAAGACGAAACAGC [GCGCUA] , which is 2.05

Kindly note the recorded normalized RNA/DNA level with ligand (log10) for GCUGUCACCGGUGCUUGGUACGUUAUAUUCAGCCGGUCUGAUGAGUCUAUGGUUAGACGAAACAGC [AUGGUU] , which is 2.01

Kindly note the recorded normalized RNA/DNA level with ligand (log10) for GCUGUCACCGGUGCUUGGUACGUUAUAUUCAGCCGGUCUGAUGAGUCUUCCACCAGACGAAACAGC [UCCACC] , which is 2.03

Kindly note the recorded normalized RNA/DNA level with ligand (log10) for GCUGUCACCGGUGCUUGGUACGUUAUAUUCAGCCGGUCUGAUGAGUCUACUCAUAGACGAAACAGC [ACUCAU] , which is 2.04

Kindly note the recorded normalized RNA/DNA level with ligand (log10) for GCUGUCACCGGUGCUUGGUACGUUAUAUUCAGCCGGUCUGAUGAGUCUGACGGUAGACGAAACAGC [GACGGU] , which is 2.01

Kindly note the recorded normalized RNA/DNA level with ligand (log10) for GCUGUCACCGGUGCUUGGUACGUUAUAUUCAGCCGGUCUGAUGAGUCUAUCUGGAGACGAAACAGC [AUCUGG] , which is 2.02
